Where do these numbers come from? They come from ChEMBL document CHEMBL3301361.

Catalogue of microsomal CLint readings, one per entry.
assay: in vitro; settings: human, microsomes

Recorded results for 3 molecules are shown here.
>>> experimental_value("Cn1c(=O)c(-c2c(Cl)cccc2Cl)cc2cnc(Nc3ccc(F)cc3)nc21")
"132 µL/min/mg"
>>> experimental_value("CCN(C(=O)Cc1ccc(S(C)(=O)=O)cc1)C1CCN(CC[C@@H](c2cc(F)cc(F)c2)N2CCN(S(C)(=O)=O)CC2)CC1")
"7.5 µL/min/mg"
>>> experimental_value("CC(C)c1nc2ccccc2n1-c1nc(N2CCOCC2)c2nc(OC3CN(C4CCS(=O)(=O)CC4)C3)n(C)c2n1")
"20.4 µL/min/mg"

Shift focus to the following entry.
Lab book: microsomal CLint of O=C(O)C(c1ccccc1)N1CCC(CN2CCC(Oc3ccc(Cl)c(Cl)c3)CC2)CC1 (centres undefined) noted as < 3 µL/min/mg

###

Catalogue of logD readings, one per entry.
test: physchem; details: octan-1-ol/water, pH 7.4, LogD7.4
// print number alone

>>> experimental_value("FC(F)(F)c1nnc2ccc(NCn3nnc4ccccc43)nn12")
2.34

Lab book: logD of Cc1cn(C[C@H]2CN(c3ccc(C4=CCS(=O)(=O)CC4)c(F)c3)C(=O)O2)nn1 noted as 1.25

Lab book: logD of N#Cc1cccc(OC[C@@H](O)CNC2CCN(Cc3ccc(Cl)c(Cl)c3)CC2)c1 noted as 3.09

Lab book: logD of c1ccc(-c2nc3ccccc3[nH]2)nc1 noted as 2.5

###

assay: in vitro; conditions: human, plasma, PPB
Field: label. Allowed values: true (1) (fraction unbound at 5 h < 0.02) or false (0) (fraction unbound at 5 h >= 0.02).

>>> assigned_class("Cc1cc(Nc2nc(O[C@H](C)c3ccc(F)cn3)c(C#N)nc2C)[nH]n1")
"false (0)"
>>> assigned_class("COc1cc(OC)c(S(=O)(=O)N2c3ccccc3CCC2C)cc1NC(=O)NCC(=O)O (stereo not given)")
"false (0)"
>>> assigned_class("CC(C)(C)OC(=O)NC[C@H]1CC[C@H](CNC(=O)c2cc(N3CCC(CCO)CC3)nc3ccccc23)CC1")
"true (1)"
>>> assigned_class("CC(C)(C)NC(=O)NCCN1CC(NC(=O)c2cc(Cl)cc(Cl)c2)C1")
"false (0)"

**Q:** Is the reported fraction unbound at 5 h for Cc1n[nH]c(C)c1Cc1sc2c(c1C(=O)N1C[C@H](O)CO1)c(=O)n(C)c(=O)n2CC(C)C strictly below 0.02?
**A:** false (0)

**Q:** Is the reported fraction unbound at 5 h for C[C@H](CO)Nc1nc(SCc2cccc(F)c2F)nc2[nH]c(N)nc12 strictly below 0.02?
**A:** false (0)

**Q:** Is the reported fraction unbound at 5 h for Cc1ccc(S(=O)(=O)Nc2c(C(=O)N[C@@H](C)C(C)(C)C)c(C)nn2C2CCCC2)cc1 strictly below 0.02?
**A:** false (0)

**Q:** Is the reported fraction unbound at 5 h for Clc1ccc2c(c1)C(N1CCNCC1)=Nc1ccccc1O2 [AMOXAPINE] strictly below 0.02?
**A:** false (0)

**Q:** Is the reported fraction unbound at 5 h for COc1cc(OC)c(S(=O)(=O)NCc2ccccc2N2CCC(COC(=O)CCC(=O)O)CC2)cc1NC(=O)CCC(=O)O strictly below 0.02?
**A:** false (0)

**Q:** Is the reported fraction unbound at 5 h for CNc1nc(C)c(-c2nc(Nc3cccc(N4CCCCC4)c3)ncc2C#N)s1 strictly below 0.02?
**A:** true (1)

**Q:** Is the reported fraction unbound at 5 h for c1ccc2c(c1)CCN(c1ccncc1)C2 strictly below 0.02?
**A:** false (0)
